System: Staphylococcus aureus
Assay: Antibacterial activity against penicillin-resistant Staphylococcus aureus clinical isolate after 24 hrs by broth microdilution method
Format: functional
recordedEndpoint: MIC

// MIC lookup, key: COc1ccc(OCCCOc2cccc(C(N)=O)c2)cc1
> 128 µg/mL

// MIC lookup, key: NC(=O)c1cccc(OCCCCOc2ccc([N+](=O)[O-])cc2)c1
> 128 µg/mL

// MIC lookup, key: NC(=O)c1cccc(OCCBr)c1
128 µg/mL

// MIC lookup, key: COc1cccc(C(N)=O)c1
4100 µg/mL

// MIC lookup, key: Cc1nc2ccccc2n1CCCCOc1cccc(C(N)=O)c1
> 128 µg/mL

// MIC lookup, key: NC(=O)c1cccc(OCCCCn2ccnc2)c1
> 128 µg/mL

// MIC lookup, key: NC(=O)c1cccc(OCCCSc2nc3ccccc3[nH]2)c1
> 128 µg/mL

// MIC lookup, key: NC(=O)c1cccc(OCCCCOc2ccccc2)c1
> 128 µg/mL

// MIC lookup, key: NC(=O)c1cccc(OCCCCCCCl)c1
32 µg/mL

// MIC lookup, key: NC(=O)c1cccc(OCCCCCl)c1
8 µg/mL

// MIC lookup, key: NC(=O)c1cccc(OCCCBr)c1
128 µg/mL

// MIC lookup, key: NC(=O)c1cccc(OCCCCCCBr)c1
64 µg/mL

// MIC lookup, key: NC(=O)c1cccc(OCCCSc2nc3ccccc3s2)c1
> 128 µg/mL

// MIC lookup, key: NC(=O)c1cccc(O)c1
4100 µg/mL
